assay: Metabolic stability test (microsomal metabolism test); type: in vitro ADME; settings: pH 7.4; human-derived liver microsomes, test compound remaining after addition of NADP+ and incubation at 37°C for 30 minutes; read-out: metabolic stability of T/C%
Attribute: remaining at 0.5 h

smiles entry: CC(C)C1=C(C(=O)N2[C@H](C)CC[C@H]2C(=O)N2CCNC3(CC3)C2)SC2=N[C@@](C)(c3ccc(Cl)c(N)c3)[C@@H](c3ccc(Cl)c(F)c3)N21
reported property: remaining at 0.5 h
result: ≥ 50%
--
smiles entry: COc1ccc([C@]2(C)N=C3SC(C(=O)N4[C@H](C)CC[C@H]4C(=O)N4CCNC5(CC5)C4)=C(C(C)C)N3[C@@H]2c2ccc(Cl)c(F)c2)cc1
reported property: remaining at 0.5 h
result: ≥ 50%

# next compound below
// remaining at 0.5 h lookup, key: "CCN(C(=O)C1=C(C(C)C)N2C(=N[C@@](C)(c3ccc(Cl)cc3)[C@H]2c2ccc(Cl)c(F)c2)S1)C1(C(=O)N2CCNC3(CC3)C2)CC1"
≥ 50%
